target: Serine/threonine-protein kinase pim-2 (Homo sapiens) (UniProt Q9P1W9);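 further: reported value is the mean percent inhibition of PIM2, measured in the GSK PKIS kinase inhibitor set screen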
Sequence (Q9P1W9 whole entry, looked up): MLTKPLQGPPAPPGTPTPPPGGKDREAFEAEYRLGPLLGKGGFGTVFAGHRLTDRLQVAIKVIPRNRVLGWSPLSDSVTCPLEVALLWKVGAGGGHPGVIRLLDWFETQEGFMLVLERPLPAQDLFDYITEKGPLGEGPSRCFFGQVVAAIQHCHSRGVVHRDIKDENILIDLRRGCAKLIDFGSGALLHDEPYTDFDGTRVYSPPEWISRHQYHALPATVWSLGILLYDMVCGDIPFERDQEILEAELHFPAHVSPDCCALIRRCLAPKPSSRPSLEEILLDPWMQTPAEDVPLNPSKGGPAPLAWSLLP
cond: at 0.1 µM
Exercise: state measured inhibition for each of the compounds provided.
Phrase the answer as number then unit, nothing more needed.

Briefly, inhibition measured for `CN(C)c1cc2c(Nc3ccc4c(cnn4Cc4ccccc4)c3)ncnc2cn1` : -0.29%

Briefly, inhibition measured for `COc1cccc(-n2ncc3c(N/N=C/c4ccc(C)cc4)ncnc32)c1` : -0.44%

Briefly, inhibition measured for `C[C@@H](Oc1cc(-n2cnc3ccc(OC[C@@H](O)CO)cc32)sc1C(N)=O)c1ccccc1Cl` : -0.13%

Briefly, inhibition measured for `CCn1c(-c2nonc2N)nc2c(C#CC(C)(C)O)nc(OCCNC)cc21` : -0.54%

Briefly, inhibition measured for `CN1CCN(C(=O)c2ccc(NC(=O)Nc3ccc(N(C)c4ccnc(Nc5ccc(CS(C)(=O)=O)cc5)n4)cc3)cc2)CC1` : -0.2%

Briefly, inhibition measured for `Oc1cccc(-c2nc(-c3ccccc3)[nH]c2-c2ccncc2)c1` : -0.34%

Briefly, inhibition measured for `Cc1ccc(C(=O)NC2CC2)cc1-c1ccc2[nH]ncc2c1` : 0.52%

Briefly, inhibition measured for `CS(=O)(=O)CCNCc1nc(-c2ccc3ncnc(Nc4ccc(OCc5cccc(C(F)(F)F)c5)cc4)c3c2)cs1` : -0.54%

Briefly, inhibition measured for `Cc1ccc(O)cc1Nc1ccnc2ccc(S(C)(=O)=O)cc12` : 0.23%

Briefly, inhibition measured for `NC(=O)c1cccc(Nc2nccc(Nc3cccc(F)c3)n2)c1` : -0.05%

###

target: RAC-alpha serine/threonine-protein kinase (Homo sapiens)
cond: at 1 µM
Description: GSK_PKIS: AKT1 mean inhibition at 1 uM [Nanosyn]
Exercise: state measured inhibition for each of the compounds provided.
Write down the numeric answer in % and omit the unit.

Briefly, inhibition measured for `c1ccc(Nc2ncc(-c3ccccc3)o2)cc1` : 0.83

Briefly, inhibition measured for `Cc1ccc2c(-c3ccnc(Nc4cccc(C(F)(F)F)c4)n3)c(-c3ccccc3)nn2n1` : 1.19

Briefly, inhibition measured for `Nc1nccc(C#Cc2cncnc2Nc2ccc(OCc3cccc(F)c3)c(Cl)c2)n1` : 0.92

Briefly, inhibition measured for `Cc1cc(Cl)cc2c1NC(=O)C2=NNc1ccc(S(N)(=O)=O)cc1` : 0.03

Briefly, inhibition measured for `NS(=O)(=O)c1cccc(-c2cc3ccncc3cc2OCc2ccccc2)c1` : 0.84

Briefly, inhibition measured for `CCS(=O)(=O)c1ccc(OC)c(Nc2ncc(-c3cccc(OC)c3)o2)c1` : 0.85

###

target: SRSF protein kinase 1 (Homo sapiens) (UniProt Q96SB4);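 further: reported values are mean percent inhibition of SRPK1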
Sequence (Q96SB4 whole entry): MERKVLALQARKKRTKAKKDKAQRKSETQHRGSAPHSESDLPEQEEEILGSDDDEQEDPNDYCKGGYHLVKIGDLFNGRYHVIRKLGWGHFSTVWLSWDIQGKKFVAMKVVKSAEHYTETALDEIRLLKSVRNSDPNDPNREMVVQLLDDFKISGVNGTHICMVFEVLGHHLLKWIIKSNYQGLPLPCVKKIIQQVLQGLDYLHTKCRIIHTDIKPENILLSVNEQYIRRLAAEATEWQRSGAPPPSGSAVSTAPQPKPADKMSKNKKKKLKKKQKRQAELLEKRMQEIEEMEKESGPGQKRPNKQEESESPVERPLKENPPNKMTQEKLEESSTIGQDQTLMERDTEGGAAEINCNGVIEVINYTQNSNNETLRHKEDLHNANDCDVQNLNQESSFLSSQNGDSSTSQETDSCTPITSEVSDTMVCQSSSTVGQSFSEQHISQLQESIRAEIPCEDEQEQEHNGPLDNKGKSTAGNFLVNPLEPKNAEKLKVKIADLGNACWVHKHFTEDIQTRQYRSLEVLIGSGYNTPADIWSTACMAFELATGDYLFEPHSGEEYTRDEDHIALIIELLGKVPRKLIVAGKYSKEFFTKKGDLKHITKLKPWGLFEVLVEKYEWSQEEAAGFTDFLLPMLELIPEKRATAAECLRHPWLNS
cond: at 1 µM
quantity.name: inhibition (%)
Write down the numeric answer in % and omit the unit.

Briefly, inhibition measured for `Cc1cc(-c2ccccn2)cc(C)c1/C=C/c1cncc(-c2nn[nH]n2)c1` : -5.12

Briefly, inhibition measured for `NS(=O)(=O)c1ccc(-c2cc3ccncc3cc2OCc2ccccc2)cc1` : 0.04

Briefly, inhibition measured for `c1ccc(Cc2nc3ccc(Nc4ncnc5ccccc45)cc3[nH]2)cc1` : 1.41

Briefly, inhibition measured for `Cc1ccc(NC(=O)CC2CC2)cc1-c1ccc(C(=O)NCC2CC2)cc1` : 1.32

Briefly, inhibition measured for `Nc1nccc(C#Cc2cncnc2Nc2ccc(OCc3cccc(F)c3)c(Cl)c2)n1` : -2.48

###

target: Serine/threonine-protein kinase pim-3 (Homo sapiens) (UniProt Q86V86)
cond: at 1 µM
Description: GSK_PKIS: PIM3 mean inhibition at 1 uM [Nanosyn]
Exercise: state measured inhibition for each of the compounds provided.
Write down the numeric answer in % and omit the unit.

Briefly, inhibition measured for `c1ccc(Cc2nc3ccc(Nc4ncnc5ccccc45)cc3[nH]2)cc1` : 3.67

Briefly, inhibition measured for `Oc1cccc(-c2nc(-c3ccccc3)[nH]c2-c2ccncc2)c1` : 1.72

Briefly, inhibition measured for `Cc1ccc2c(-c3ccnc(Nc4ccc5c(c4)OCCO5)n3)c(-c3ccc(C(F)(F)F)cc3)nn2n1` : 0.77

Briefly, inhibition measured for `Cc1nc(-c2ccccc2)n2nc(NCCCN3CCOCC3)ncc12` : 1.5

Briefly, inhibition measured for `COc1ccc2ncnc(Nc3ccc(OCc4ccccc4)cc3)c2c1` : 0.59

Briefly, inhibition measured for `COc1cccc(-n2ncc3c(N/N=C/c4ccc(C)cc4)ncnc32)c1` : 8.3

Briefly, inhibition measured for `c1ccc(Nc2ncc(-c3ccccc3)o2)cc1` : 2.31

Briefly, inhibition measured for `NS(=O)(=O)c1ccc(-c2cc3ccncc3cc2OCc2ccccc2)cc1` : 1.38

Briefly, inhibition measured for `[O-][S+]1CCN(Cc2ccc(-c3ccc4ncnc(Nc5ccc(OCc6ccccc6)c(Cl)c5)c4c3)o2)CC1` : 1.32

Briefly, inhibition measured for `CN(c1ccc(NC(=O)Nc2ccc(OC(F)(F)F)cc2)cc1)c1ccnc(Nc2cccc(S(N)(=O)=O)c2)n1` : -1.83

Briefly, inhibition measured for `CN1CCN(C(=O)c2ccc(NC(=O)Nc3ccc(N(C)c4ccnc(Nc5ccc(CS(C)(=O)=O)cc5)n4)cc3)cc2)CC1` : 2.14

Briefly, inhibition measured for `CN(C)CCCn1c(-c2nonc2N)nc2cnccc21` : 1.03

Briefly, inhibition measured for `ON=C1CCc2cc(-c3nc(C4CCNCC4)[nH]c3-c3ccncc3)ccc21` : -1.33

Briefly, inhibition measured for `NS(=O)(=O)c1ccc(N/N=C2\C(=O)Nc3ccc(Cl)cc32)cc1` : 4.86

Briefly, inhibition measured for `Cc1ccc(C(=O)NC2CC2)cc1-c1ccc2[nH]ncc2c1` : 4.89

Briefly, inhibition measured for `NS(=O)(=O)c1ccc(NC=C2C(=O)Nc3ccc4ncsc4c32)cc1` : 13.1

Briefly, inhibition measured for `Cc1ccc(NC(=O)CC2CC2)cc1-c1ccc(C(=O)NCC2CC2)cc1` : 1.25

Briefly, inhibition measured for `Cc1ccc(Nc2ccnc(Nc3cccc(C(N)=O)c3)n2)cc1O` : 1.91

Briefly, inhibition measured for `Nc1nccc(-c2c(-c3ccc(F)cc3)ncn2CCCN2CCOCC2)n1` : 1.36

Briefly, inhibition measured for `COc1ccc(-c2nn3ncccc3c2-c2ccnc(Nc3cccc(C(F)(F)F)c3)n2)cc1` : 0.75

Briefly, inhibition measured for `CS(=O)(=O)CCNCc1nc(-c2ccc3ncnc(Nc4ccc(OCc5cccc(C(F)(F)F)c5)cc4)c3c2)cs1` : 0.97

Briefly, inhibition measured for `N#Cc1c(NC(=O)c2ccccc2F)sc2c1CCCC2` : 2.71

Briefly, inhibition measured for `COc1cc(/C=N/Nc2ncnc3c2cnn3C(C)C)ccc1O` : 7.74

Briefly, inhibition measured for `CCn1c(-c2nonc2N)nc2ccc(F)cc21` : 4.99

Briefly, inhibition measured for `Nc1nccc(C#Cc2cncnc2Nc2ccc(OCc3cccc(F)c3)c(Cl)c2)n1` : -1.09

Briefly, inhibition measured for `Cc1ccc(O)cc1Nc1ccnc2ccc(S(C)(=O)=O)cc12` : 1.04

Briefly, inhibition measured for `NS(=O)(=O)c1cccc(-c2cc3ccncc3cc2OCc2ccccc2)c1` : -3.18

Briefly, inhibition measured for `COC(=O)c1ccc2c(c1)C(=Cc1cc(Br)c(O)c(Br)c1)C(=O)N2` : 64.3

Briefly, inhibition measured for `C[C@@H](Oc1cc(-n2cnc3ccc(OCC4CCN(C)CC4)cc32)sc1C(N)=O)c1ccccc1C(F)(F)F` : 47.6

Briefly, inhibition measured for `COC(=O)c1cncc(/C=C/c2c(C)cc(O)cc2C)c1` : 3.35

Briefly, inhibition measured for `CCS(=O)(=O)c1ccc(OC)c(Nc2nccc(N(C)c3ccc4c(C)n[nH]c4c3)n2)c1` : 0.25

Briefly, inhibition measured for `Cc1ccc2c(-c3ccnc(Nc4cccc(C(F)(F)F)c4)n3)c(-c3ccccc3)nn2n1` : 1.85

Briefly, inhibition measured for `CN(C)C(=O)O[C@@H]1CN[C@@H](C#Cc2cc3ncnc(Nc4ccc(OCc5cccc(F)c5)c(Cl)c4)c3s2)C1` : -1.29

Briefly, inhibition measured for `CCS(=O)(=O)c1ccc(OC)c(Nc2ncc(-c3cccc(OC)c3)o2)c1` : -0.55

###

target: Serine/threonine-protein kinase MARK2 (Homo sapiens) (UniProt Q7KZI7)
Sequence (Q7KZI7 whole entry): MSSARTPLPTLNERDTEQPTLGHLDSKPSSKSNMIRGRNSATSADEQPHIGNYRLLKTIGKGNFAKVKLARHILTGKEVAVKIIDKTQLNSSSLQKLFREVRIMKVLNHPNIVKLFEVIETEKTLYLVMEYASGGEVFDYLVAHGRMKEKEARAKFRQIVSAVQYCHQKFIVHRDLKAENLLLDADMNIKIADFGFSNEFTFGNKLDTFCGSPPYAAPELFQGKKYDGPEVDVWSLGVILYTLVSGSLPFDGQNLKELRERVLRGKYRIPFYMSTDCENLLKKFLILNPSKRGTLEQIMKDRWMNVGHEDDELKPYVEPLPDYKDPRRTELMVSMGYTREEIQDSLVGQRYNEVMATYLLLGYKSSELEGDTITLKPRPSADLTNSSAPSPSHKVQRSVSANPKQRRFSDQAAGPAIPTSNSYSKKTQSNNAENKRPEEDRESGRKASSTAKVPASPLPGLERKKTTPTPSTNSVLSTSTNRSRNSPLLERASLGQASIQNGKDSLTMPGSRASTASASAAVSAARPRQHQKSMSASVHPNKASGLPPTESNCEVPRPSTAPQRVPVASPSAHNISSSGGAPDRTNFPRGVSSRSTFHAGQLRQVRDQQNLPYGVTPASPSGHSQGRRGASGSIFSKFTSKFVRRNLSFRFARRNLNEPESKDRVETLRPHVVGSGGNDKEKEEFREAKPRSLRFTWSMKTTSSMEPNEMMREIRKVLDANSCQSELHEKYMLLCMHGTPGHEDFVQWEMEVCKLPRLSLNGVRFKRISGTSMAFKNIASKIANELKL
cond: at 1 µM
Description: GSK_PKIS: PAR-1Balpha mean inhibition at 1 uM [Nanosyn]
quantity.name: inhibition (%)
Write down the numeric answer in % and omit the unit.

Briefly, inhibition measured for `COc1cccc(-n2nc(C)c3c(N/N=C(\C)c4ccncc4)ncnc32)c1` : 0.88

Briefly, inhibition measured for `COc1ccc(-c2nn3ncccc3c2-c2ccnc(Nc3cccc(C(F)(F)F)c3)n2)cc1` : 1.37

Briefly, inhibition measured for `C[C@@H](Oc1cc(-n2cnc3ccc(OC[C@@H](O)CO)cc32)sc1C(N)=O)c1ccccc1Cl` : 4.76

Briefly, inhibition measured for `CS(=O)(=O)CCNCc1nc(-c2ccc3ncnc(Nc4ccc(OCc5cccc(C(F)(F)F)c5)cc4)c3c2)cs1` : 1.07

Briefly, inhibition measured for `CCS(=O)(=O)c1ccc(OC)c(Nc2ncc(-c3cccc(OC)c3)o2)c1` : 1.4

###

Exercise: state measured inhibition for each of the compounds provided.
target: Rho-associated protein kinase 1 (Homo sapiens);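 further: reported values are mean percent inhibition of ROCK1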
cond: at 1 µM
Phrase the answer as number then unit, nothing more needed.

Considering `NS(=O)(=O)c1cccc(Nc2cc(-c3ccc(F)cc3)n[nH]2)c1` , its inhibition with Rho-associated protein kinase 1 (Homo sapiens) was recorded as 3.34%

Considering `NC(=O)c1sc(-n2cnc3ccccc32)cc1OCc1ccccc1Br` , its inhibition with Rho-associated protein kinase 1 (Homo sapiens) was recorded as 3.15%

Considering `NC(=O)c1cccc(Nc2nccc(Nc3cccc(F)c3)n2)c1` , its inhibition with Rho-associated protein kinase 1 (Homo sapiens) was recorded as 0.46%

Considering `Cc1nc(-c2ccccc2)n2nc(NCCCN3CCOCC3)ncc12` , its inhibition with Rho-associated protein kinase 1 (Homo sapiens) was recorded as 0.26%

Considering `NS(=O)(=O)c1ccc(N/N=C2\C(=O)Nc3ccc(Cl)cc32)cc1` , its inhibition with Rho-associated protein kinase 1 (Homo sapiens) was recorded as 2.29%

Considering `O=C(Nc1ccc(Oc2ccc3[nH]c(NC(=O)c4ccco4)nc3c2)cc1)Nc1cc(C(F)(F)F)ccc1F` , its inhibition with Rho-associated protein kinase 1 (Homo sapiens) was recorded as 26.5%

Considering `CN(C)C(=O)O[C@H]1CN[C@H](C#Cc2cc3ncnc(Nc4ccc(OCc5cccc(F)c5)c(Cl)c4)c3s2)C1` , its inhibition with Rho-associated protein kinase 1 (Homo sapiens) was recorded as 4.25%

Considering `Cc1cc(O)cc(C)c1/C=C/c1cncc(C(=O)N(C)C)c1` , its inhibition with Rho-associated protein kinase 1 (Homo sapiens) was recorded as 1.38%

Considering `COc1cc2ncnc(Nc3ccc4c(cnn4Cc4ccccc4)c3)c2cc1OC` , its inhibition with Rho-associated protein kinase 1 (Homo sapiens) was recorded as 6.38%

Considering `Nc1nccc(C#Cc2cncnc2Nc2ccc(OCc3cccc(F)c3)c(Cl)c2)n1` , its inhibition with Rho-associated protein kinase 1 (Homo sapiens) was recorded as 3.74%

Value source: ChEMBL document CHEMBL1961873
